- MEASURED_ON: [V390I/Y410E/E274V]-CfEcR (Choristoneura fumiferana, UniProt O77240)
- Construct: assay construct b835
- Type: cell-based
- ASSAY_SETUP: rac, 3T3 Cells, read-out: EC50
METRIC: EC50

Solved entries (count: 5):
EC50 in this record for CCCC(N(NC(=O)c1ccc(CC)cc1)C(=O)c1cc(C)cc(C)c1)C(C)(C)C (racemic) : ~0.6 nM

The recorded EC50 for entry CCCC(N(NC(=O)c1ccc(Cl)cc1)C(=O)c1cc(C)cc(C)c1)C(C)(C)C (racemic) equals ~20 nM

Lab book: EC50 of C=CCC(C1CCCCC1)N(NC(=O)c1cccc(OC)c1C)C(=O)c1cc(C)cc(C)c1 (racemic) noted as ~200 nM

Form field EC50, entry CCCC(N(NC(=O)c1ccccc1Br)C(=O)c1cc(C)cc(C)c1)C(C)(C)C (racemic) : ~3 nM

Record summary for CCCC(N(NC(=O)c1ccc(OC)cc1)C(=O)c1cc(C)cc(C)c1)C(C)(C)C (racemic) : reported EC50 = ~5 nM

Next:
Sample CCCC(N(NC(=O)c1cc(F)cc(F)c1)C(=O)c1cc(C)cc(C)c1)C(C)(C)C (racemic) ; EC50 observed: ~3 nM

Value of EC50 reported for the compound CCCC(N(NC(=O)c1ccccc1OC)C(=O)c1cc(C)cc(C)c1)C(C)(C)C (racemic) is ~300 nM
